A collection of compounds and their measured pEC50
# Tested on: HBV DNA
# assay procedure: Anti-HBV activity in HepDE19 cells (HBV DNA dot-blot)
# Format: cell-based, Hepatitis B virus (HBV)
# condition parameters: Hepatitis B virus, 120 h; HepDE19 cells, five days after compound treatment, concentration that inhibited HBV DNA by 50%; read-out: HepDe19 EC50
Scale note: pEC50 = -log10(concentration in M).

Worked examples, 4 compounds total:
Entry under review: COC(=O)C1=C(CN2CC(F)(F)C[C@H]2C(=O)O)NC(c2ncc(Cl)s2)=N[C@@]1(C)c1ccc(F)cc1 [Example 33] . Reported pEC50?
5.68

Entry under review: COC(=O)C1=C(CN2CC(F)(F)CC2CCCO)NC(c2nccs2)=N[C@@]1(C)c1ccc(F)cc1 (stereo partly shown) [Example 56] . Reported pEC50?
6.18

Entry under review: COC(=O)C1=C(CN2CC(F)(F)C[C@H]2c2nc(C)no2)NC(c2nccs2)=N[C@@]1(C)c1ccc(F)cc1 [Example 59] . Reported pEC50?
5.91

Entry under review: COC(=O)C1=C(CN2C[C@H](F)C[C@H]2C(=O)O)NC(c2nccs2)=N[C@@]1(C)c1ccc(F)cc1 [Example 34] . Reported pEC50?
5.55

More entries:
Entry under review: COC(=O)C1=C(CN2CC(F)(F)C[C@H]2C(=O)O)NC(c2nccn2C)=N[C@@]1(C)c1ccc(F)cc1 [Example 27] . Reported pEC50?
5.57

Entry under review: COC(=O)C1=C(CN2CC(F)(F)C[C@H]2C(=O)NS(C)(=O)=O)NC(c2nccs2)=N[C@@]1(C)c1ccc(F)cc1 [Example 51] . Reported pEC50?
4.74

Entry under review: C[C@@]1(c2ccc(F)c(F)c2)N=C(c2nccs2)NC(CN2CC(F)(F)C[C@H]2C(=O)O)=C1C#N [Example 23] . Reported pEC50?
5.15

----------
# assay procedure: in vitro
# condition parameters: human
# Procedure: The transfected cells were selected with G418 (also known as Genticin, purchased from Invitrogen). […] To determine if the anti-HBV effect of compound is due to cytotoxicity, HepDE 19 cells (5×10^3 cells/well) were seeded into 96-well plates and compounds were treated as described above. […] Four hours after incubation at 37° C., the absorbance at wavelengths of 450 nm and 630 nm (OD450 and OD630) was recorded by a plate reader.
A collection of compounds and their measured CC50 at 5 days

Entry under review: COC(=O)C1=C(CN2CC(F)(F)C[C@H]2C(=O)O)NC(c2nccn2C)=N[C@@]1(C)c1ccc(F)cc1 [Example 27] . Reported CC50 at 5 days?
55.8 µM

Entry under review: C[C@@]1(c2ccc(F)c(F)c2)N=C(c2nccs2)NC(CN2CC(F)(F)C[C@H]2C(=O)O)=C1C#N [Example 23] . Reported CC50 at 5 days?
> 100 µM

Entry under review: COC(=O)C1=C(CN2CC(F)(F)C[C@H]2C(=O)O)NC(c2cc(C)on2)=NC1(C)c1ccc(F)cc1 (stereo partly shown) [Example 40] . Reported CC50 at 5 days?
≥ 100 µM

----------
A collection of compounds and their measured pEC50
# Test system: HBV DNA
# assay procedure: Anti-HBV activity in HepDE19 cells (HBV DNA dot-blot)
# Format: cell-based, Hepatitis B virus (HBV)
# condition parameters: Hepatitis B virus, 120 h; HepDE19 cells, five days after compound treatment, concentration that inhibited HBV DNA by 50%; read-out: HepDe19 EC50
# Excerpt: Cells and culture conditions: HepDE19 (Haitao Guo et al, Journal of Virology, 81, November 2007, 12472-12484; Richeng Mao et al, Journal of Virology, 85, January 2011, 1048-1057) cells were derived from HepG2 (ATCC, American Type Culture Collection) cells through transfection with pTet-off plasmid (Clontech) that expresses the Tet-responsive transcriptional activator and pTREHBVDE plasmid in which HBV pgRNA expression is controlled by a CMV early promoter with a tetracycline-responsive element. […]
Scale note: pEC50 = -log10(concentration in M).

Entry under review: COC(=O)C1=C(CN2CC(F)(F)C[C@H]2C(N)=O)NC(c2nccs2)=N[C@@]1(C)c1ccc(F)cc1 . Reported pEC50?
7.10

Entry under review: COC(=O)C1=C(CN2CC(F)(F)CCC2C(=O)O)NC(c2nccs2)=N[C@@]1(C)c1ccc(F)cc1 (stereo partly shown) . Reported pEC50?
5.96

Entry under review: COC(=O)C1=C(CN2CCOC[C@H]2C(=O)O)NC(c2ccc(F)cn2)=NC1(C)c1ccc(F)cc1 (stereo partly shown) . Reported pEC50?
5.15

Entry under review: COC(=O)C1=C(CN2CCOC[C@H]2CO)NC(c2nccs2)=NC1(C)c1ccc(F)cc1 (stereo partly shown) . Reported pEC50?
5.76

Entry under review: COC(=O)C1=C(CN2CCOC[C@H]2C(=O)OC)NC(c2nccs2)=NC1(C)c1ccc(F)cc1 (stereo partly shown) . Reported pEC50?
6.15

More entries:
Entry under review: CC1(c2ccc(F)c(F)c2)N=C(c2nccs2)NC(CN2CCOC[C@H]2C(=O)O)=C1C#N (stereo partly shown) . Reported pEC50?
4.69

Entry under review: COC(=O)C1=C(CN2CC(F)(F)C[C@H]2C(=O)O)NC(c2nccs2)=N[C@@]1(C)c1ccc(F)c(F)c1 . Reported pEC50?
6.70

----------
# Test system: HBV DNA
# assay procedure: Anti-HBV activity in HepDE19 cells (HBV DNA dot-blot)
# Type: cell-based, Hepatitis B virus (HBV)
# condition parameters: Hepatitis B virus, 120 h; HepDE19 cells, five days after compound treatment, concentration that inhibited HBV DNA by 50%; read-out: HepDe19 EC50
result type: EC50 (µM)
Output spec: scalar in µM, unitless text.

Entry under review: COC(=O)C1=C(CN2CC(F)(F)C[C@H]2C(=O)Nc2nccs2)NC(c2nccs2)=N[C@@]1(C)c1ccc(F)cc1 . Reported EC50?
5.43

Entry under review: COC(=O)C1=C(CN2CCC(F)(F)CC2C(=O)O)NC(c2nccs2)=N[C@@]1(C)c1ccc(F)cc1 (stereo partly drawn) . Reported EC50?
1.97

Lab note: next molecule to report on.
Entry under review: C[C@@]1(c2ccc(F)cc2)N=C(c2nccs2)NC(CN2CC(F)(F)C[C@H]2C(=O)O)=C1C#N . Reported EC50?
21

----------
# Tested on: HBV DNA
# assay procedure: Anti-HBV activity in HepDE19 cells (HBV DNA dot-blot)
# Type: cell-based, Hepatitis B virus (HBV)
# condition parameters: Hepatitis B virus, 120 h; HepDE19 cells, five days after compound treatment, concentration that inhibited HBV DNA by 50%; read-out: HepDe19 EC50
A collection of molecules and their measured pEC50
Scale note: pEC50 = -log10(concentration in M).

Fill in the recorded pEC50 for this molecule, with HBV DNA as test system: COC(=O)C1=C(CN2CC(F)(F)C[C@H]2C(=O)OC)NC(c2ccc(F)cn2)=NC1(C)c1ccc(F)cc1 (stereo in doubt) [Example 17]
6.23

Fill in the recorded pEC50 for this molecule, with HBV DNA as test system: COC(=O)C1=C(CN2CC(F)(F)CC2C(N)=O)NC(c2nccs2)=N[C@@]1(C)c1ccc(F)cc1 (stereo partly shown) [Example 47]
7.32

Fill in the recorded pEC50 for this molecule, with HBV DNA as test system: COC(=O)C1=C(COC(C)(C)C(=O)OC)NC(c2nccs2)=NC1(C)c1ccc(F)cc1 (stereo not shown) [Example 1]
4.58

Lab note: next molecule to report on.
Fill in the recorded pEC50 for this molecule, with HBV DNA as test system: COC(=O)C1=C(CN2CC(F)(F)C[C@H]2C(=O)O)NC(c2sccc2F)=N[C@@]1(C)c1ccc(F)cc1 [Example 41]
6.55

----------
# Test system: HBV DNA
# assay procedure: Anti-HBV activity in HepDE19 cells (HBV DNA dot-blot)
# Type: cell-based, Hepatitis B virus (HBV)
# condition parameters: Hepatitis B virus, 120 h; HepDE19 cells, five days after compound treatment, concentration that inhibited HBV DNA by 50%; read-out: HepDe19 EC50
A collection of compounds and their measured pEC50
Scale note: pEC50 = -log10(concentration in M).

Worked examples, 10 compounds total:
Entry under review: COC(=O)C1=C(CN2CC(F)(F)C[C@H]2C(=O)O)NC(c2ncc(C)s2)=NC1(C)c1ccc(F)cc1 (stereo partly shown) [Example 19] . Reported pEC50?
4.78

Entry under review: COC(=O)C1=C(CN2CC(F)(F)C[C@H]2C(=O)O)NC(c2nc(C)cs2)=N[C@@]1(C)c1ccc(F)cc1 [Example 32] . Reported pEC50?
6.89

Entry under review: CNC(=O)[C@@H]1CC(F)(F)CN1CC1=C(C(=O)OC)C(C)(c2ccc(F)cc2)N=C(c2nccs2)N1 (stereo partly shown) [Example 50] . Reported pEC50?
6.22

Entry under review: CCOC(=O)C1=C(CN2CCOC[C@H]2C(=O)O)NC(c2nccs2)=NC1(C)c1ccc(F)c(F)c1 (stereo partly shown) [Example 29] . Reported pEC50?
5.40

Entry under review: COC(=O)C1=C(CN2CC(F)(F)C[C@H]2CO)NC(c2nccs2)=N[C@@]1(C)c1ccc(F)cc1 [Example 55] . Reported pEC50?
7.17

Entry under review: COC(=O)C1=C(CN2CCOC[C@H]2C(=O)O)NC(c2nccn2C)=N[C@@]1(C)c1ccc(F)cc1 [Example 30] . Reported pEC50?
5.17

Entry under review: COC(=O)C1=C(CN2CC(F)(F)C[C@H]2C(=O)O)NC(c2cc(C)on2)=NC1(C)c1ccc(F)cc1 (stereo partly shown) [Example 40] . Reported pEC50?
5.27

Entry under review: COC(=O)C1=C(CN2CC(F)(F)C[C@H]2C(=O)OCCN(C)C)NC(c2nccs2)=N[C@@]1(C)c1ccc(F)cc1 [Example 46] . Reported pEC50?
5.67

Entry under review: COC(=O)C1=C(CN2CC(F)(F)C[C@H]2c2nnn[nH]2)NC(c2nccs2)=N[C@@]1(C)c1ccc(F)cc1 [Example 58] . Reported pEC50?
5.99

Entry under review: COC(=O)C1=C(CN2CC(F)(F)C[C@H]2C(=O)N(C)C)NC(c2nccs2)=N[C@@]1(C)c1ccc(F)cc1 [Example 49] . Reported pEC50?
6.54

More entries:
Entry under review: COC(=O)C1=C(CN2C[C@@H](F)C[C@H]2C(=O)O)NC(c2nccs2)=N[C@@]1(C)c1ccc(F)cc1 [Example 39] . Reported pEC50?
4.98

Entry under review: COC(=O)C1=C(CN2CCOC[C@H]2C(=O)OC)NC(c2nccs2)=NC1(C)c1ccc(F)c(F)c1 (stereo in doubt) [Example 15] . Reported pEC50?
6.25

Entry under review: COC(=O)C1=C(CN2CC(F)(F)C[C@@]2(C)C(=O)O)NC(c2nccs2)=N[C@]1(C)c1ccc(F)cc1 [Example 36] . Reported pEC50?
5.13

Entry under review: COC(=O)C1=C(CN2CC(F)(F)C[C@H]2C(=O)O)NC(c2sccc2F)=N[C@]1(C)c1ccc(F)cc1 [Example 42] . Reported pEC50?
5.17

Entry under review: CCOC(=O)C1=C(CN2CC(F)(F)C[C@H]2C(=O)O)NC(c2nccs2)=N[C@]1(C)c1ccc(F)c(F)c1 [Example 28] . Reported pEC50?
5.13

Entry under review: COC(=O)C1=C(CN2CC(F)(F)C[C@@]2(C)C(=O)O)NC(c2nccs2)=N[C@@]1(C)c1ccc(F)cc1 [Example 20] . Reported pEC50?
5.55

Entry under review: COC(=O)C1=C(CN2CC(F)(F)C[C@H]2c2nnc(C)o2)NC(c2nccs2)=N[C@@]1(C)c1ccc(F)cc1 [Example 57] . Reported pEC50?
5.81

Entry under review: COC(=O)C1=C(CN2CC(F)(F)C[C@H]2C(=O)O)NC(c2ccc(F)s2)=N[C@@]1(C)c1ccc(F)cc1 [Example 38] . Reported pEC50?
5.69

Entry under review: COC(=O)C1=C(CN2CC(F)(F)C[C@H]2C(=O)O)NC(c2nc(C)cs2)=N[C@]1(C)c1ccc(F)cc1 [Example 31] . Reported pEC50?
5.78

Entry under review: CCOC(=O)C1=C(CN2CC(F)(F)C[C@H]2C(=O)O)NC(c2nccs2)=N[C@@]1(C)c1ccc(F)c(F)c1 [Example 24] . Reported pEC50?
6.10

Entry under review: COC(=O)C1=C(CN2CC(F)(F)C[C@H]2C(=O)O)NC(c2ncc(C)s2)=N[C@@]1(C)c1ccc(F)cc1 [Example 37] . Reported pEC50?
6.33

Entry under review: COC(=O)C1=C(CN2CCOC[C@@H]2C(=O)O)NC(c2ccc(F)cn2)=NC1(C)c1ccc(F)cc1 (stereo partly shown) [Example 9] . Reported pEC50?
5.38

Reference source for all entries: patent US9856247B2
